Target: ELIC R299Q (Dickeya chrysanthemi, UniProt P0C7B7, R298Q)
Construct: MBP (N, cleaved yes)
Sequence (P0C7B7 whole entry R298Q): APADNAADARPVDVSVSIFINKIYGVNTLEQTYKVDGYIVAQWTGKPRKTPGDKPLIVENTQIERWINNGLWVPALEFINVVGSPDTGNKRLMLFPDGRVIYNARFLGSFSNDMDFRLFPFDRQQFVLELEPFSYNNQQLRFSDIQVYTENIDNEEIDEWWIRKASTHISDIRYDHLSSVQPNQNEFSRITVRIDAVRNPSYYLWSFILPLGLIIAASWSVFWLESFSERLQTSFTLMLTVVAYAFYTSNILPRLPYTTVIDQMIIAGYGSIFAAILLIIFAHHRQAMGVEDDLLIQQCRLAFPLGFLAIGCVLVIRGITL
Experiment: Excised patch-clamp recordings from giant liposomes
Details: 25 mole% POPG; read-out: Cysteamine response EC50
RECORDED METRIC: EC50 (mM)
Quick reminder: number only, in mM, skip the unit.

Look up EC50 for this compound: NCCS [cysteamine]
4.7

----------
Target: ELIC L238A (Dickeya chrysanthemi, UniProt P0C7B7, L237A)
Construct: MBP (N, cleaved yes)
Test: Excised patch-clamp recordings from giant liposomes
Details: 25 mole% POPG; read-out: Cysteamine response EC50
RECORDED METRIC: EC50 (mM)
Unit mM implied. Number only.

For the molecule shown here, `NCCS` , give the reported EC50.
4.9
